These data points were gathered from PubChem BioAssay.

- Assay remarks: MELAS cybrid and Rieske KO viability enhancers – cell-based, MELAS cybrids, Rieske KO mouse fibroblasts, CellTiter-Glo, primary screen (AID 1508586);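 note: test concentration not given here; z relative to plate mean and SD of compound and empty wells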
- Details: MELAS cybrid survival, low glucose, CellTiter-Glo 48 h; active compounds read high
I'd appreciate it if you could supply z-score values for the items below.
One number for each entry.

Provide the reported z-score of each entry below, same order.
1. CC(=O)Nc1ccc(O)cc1
2. CN1C(C)(C)CCCC1(C)C
3. O=C1c2c(O)cccc2Cc2cccc(O)c21
4. O=C(Nc1ccc([N+](=O)[O-])cc1Cl)c1cc(Cl)ccc1O
5. O=C(O)c1ccccc1O

-- reply
0.35
-0.15
0.308
-1.03
-0.0591

Provide the reported z-score of each entry below, same order.
1. CN(Cc1cnc2nc(N)nc(N)c2n1)c1ccc(C(=O)N[C@@H](CCC(=O)O)C(=O)O)cc1
2. C/C=C/c1ccc(OC)cc1
3. CN(C)CCOC(=O)C(c1ccccc1)C1(O)CCCC1 (centres undefined)
4. CCN(CC)CCNC(=O)c1cc(S(C)(=O)=O)ccc1OC
5. O=c1c(-c2ccc(O)cc2)coc2cc(O)cc(O)c12
6. C=CC(N)CCC(=O)O (centres undefined)

-- reply
1.68
-0.525
0.757
0.496
-0.427
-0.0921
